Data provenance is BindingDB's records for doi:10.1016/j.ejmech.2018.10.038.

- assay_method_text: Reversal of P-gp-mediated multidrug resistance in human KBV cells assessed as potentiation of paclitaxel-induced cytotoxicity by measuring paclitaxel IC50 at 10 uM after 72 hrs by MTT assay (Rvb = 1353.98 +/- 303.33 nM)
result_type: IC50 (µM)
Please give a number only; it is taken to be in µM.

Return reported IC50. Input molecule: CC(C)(C)OC(=O)NCCCCCC(=O)N[C@H]1CC[C@]2(C)[C@H]3C[C@@H](O)[C@@H]4[C@@H]([C@]5(C)CC[C@H](C(C)(C)O)O5)CC[C@@]4(C)[C@]3(C)CC[C@H]2C1(C)C
0.028

Return reported IC50. Input molecule: CC(C)(O)[C@H]1CC[C@@](C)([C@H]2CC[C@]3(C)[C@@H]2[C@H](O)C[C@@H]2[C@@]4(C)CC[C@H](N)C(C)(C)[C@@H]4CC[C@]23C)O1
0.048
